Tested on: MRC5 cells
Experiment: Cell viability assay in MRC5 cells (MTT)
Conditions: 100 nM
Counter-ions that a name gives are not always drawn.
So I've got a bunch of compounds here, and I need their Cell viability at 100 nM (%) values.
Answer with a number only, understood to be in %.

Q: State its Cell viability at 100 nM (%): COCCNC(=O)CN1CCN(C(=O)c2ccc(N/C(=C3\C(=O)Nc4cc(C(=O)OC)c(C)cc43)c3ccccc3)cc2)CC1 [Example 39]
A: 96.2

Q: Tell us which Cell viability at 100 nM (%) value is on record for COC(=O)c1cc2c(cc1C)/C(=C(/Nc1ccc(C(=O)NCCN3CCC(F)CC3)cc1)c1ccccc1)C(=O)N2 [Example 28, formate]
A: 149.4

Q: Please give measured Cell viability at 100 nM (%) of the following entry: COC(=O)c1cc2c(cc1C)/C(=C(/Nc1ccc(C(=O)N3CCC4(CC3)C(=O)NCCN4C)cc1)c1ccccc1)C(=O)N2 [Example 30]
A: 107.2

Q: Using the record for COC(=O)c1cc2c(cc1C)/C(=C(/Nc1ccc(C(=O)NCC3(N(C)C)CCOCC3)cc1)c1ccccc1)C(=O)N2 [Example 36] , state its measured Cell viability at 100 nM (%).
A: 87.3

Q: Using known records, supply Cell viability at 100 nM (%) for COC(=O)c1cc2c(cc1C)/C(=C(/Nc1ccc(C(=O)N3CCC(CO)(CN(C)C)CC3)cc1)c1ccccc1)C(=O)N2 [Example 38]
A: 70.7

Q: Give the reported value of Cell viability at 100 nM (%) for this record: COC(=O)c1cc2c(cc1C)/C(=C(/Nc1ccc(C(=O)NCCN3CCC(N(C)C)CC3)cc1)c1ccccc1)C(=O)N2 [Example 6]
A: 102.3

Q: // fetch Cell viability at 100 nM (%) given entry COC(=O)c1cc2c(cc1C)/C(=C(/Nc1ccc(C(=O)NCCN(C)C)cc1)c1ccccc1)C(=O)N2 [Example 2, formate]
A: 94

Q: Give Cell viability at 100 nM (%) for the following compound: COC(=O)c1cc2c(cc1C)/C(=C(/Nc1ccc(C(=O)N3CCN(CCO)CC3)cc1)c1ccccc1)C(=O)N2 [Example 19]
A: 85.5

Q: Name the recorded Cell viability at 100 nM (%) of the compound listed here: COC(=O)c1cc2c(cc1C)/C(=C(/Nc1ccc(C(=O)N3CCC(O)(CN4CCCC4)CC3)cc1)c1ccccc1)C(=O)N2 [Example 37, formate]
A: 93.6

Q: Please give measured Cell viability at 100 nM (%) of the following entry: COC(=O)c1cc2c(cc1C)/C(=C(/Nc1ccc(C(=O)N3CCCN(CCO)CC3)cc1)c1ccccc1)C(=O)N2 [Example 46]
A: 87

Q: Please look at this compound and report its Cell viability at 100 nM (%): COC(=O)c1cc2c(cc1C)/C(=C(/Nc1ccc(S(=O)(=O)NCCN(C)C)cc1)c1ccccc1)C(=O)N2 [Example 25, formate]
A: 83.2

Q: For the compound COC(=O)c1cc2c(cc1C)/C(=C(/Nc1cccc(C(=O)N(C)CCN(C)C)c1)c1ccccc1)C(=O)N2 [Example 16] , give its reported Cell viability at 100 nM (%).
A: 103.2

Q: Give a short answer stating reported Cell viability at 100 nM (%) for COC(=O)c1cc2c(cc1C)/C(=C(/Nc1ccc(C(=O)N3CCC(C(=O)NCCN(C)C)CC3)cc1)c1ccccc1)C(=O)N2 [Example 31] .
A: 69.3
